Data origin, for the record: patent US6426339B1

# Motor block per record follows
System: sciatic nerve
Assay remarks: Motor block: additives in the injection fluid with bupivacaine microspheres (Table 2)
Type: in vivo, rat
Condition details: additive 0.1 mg/Kg rat with bupivacaine microspheres

# Compound, Reading unit, Motor block
rows = [
    ("C[C@]12CCC(=O)C=C1CC[C@@H]1[C@@H]2[C@@H](O)C[C@@]2(C)[C@H]1CC[C@]2(O)C(=O)CO [Hydrocortisone, hydrocortisone]", "h", 10.0),
    ("CC(C)CCC[C@@H](C)[C@H]1CC[C@H]2[C@@H]3CC=C4C[C@@H](O)CC[C@]4(C)[C@H]3CC[C@]12C [Cholesterol]", "h", 4.0),
    ("C[C@H]1C[C@@H]2[C@H]([C@@H](O)C[C@@]3(C)[C@H]2CC[C@]3(O)C(=O)CO)[C@@]2(C)C=CC(=O)C=C12 [Methylprednisolone, methylprednisolone]", "h", 13.0),
    ("CNC[C@H](O)c1ccc(O)c(O)c1 [Epinephrine]", "h", 11.0),
]
